Recorded values, source patent US20200247800A1.

Target: human NOX4 (Homo sapiens)
Construct: expressed in transfected cells; membrane fraction used
Sequence (Q9NPH5 1-578): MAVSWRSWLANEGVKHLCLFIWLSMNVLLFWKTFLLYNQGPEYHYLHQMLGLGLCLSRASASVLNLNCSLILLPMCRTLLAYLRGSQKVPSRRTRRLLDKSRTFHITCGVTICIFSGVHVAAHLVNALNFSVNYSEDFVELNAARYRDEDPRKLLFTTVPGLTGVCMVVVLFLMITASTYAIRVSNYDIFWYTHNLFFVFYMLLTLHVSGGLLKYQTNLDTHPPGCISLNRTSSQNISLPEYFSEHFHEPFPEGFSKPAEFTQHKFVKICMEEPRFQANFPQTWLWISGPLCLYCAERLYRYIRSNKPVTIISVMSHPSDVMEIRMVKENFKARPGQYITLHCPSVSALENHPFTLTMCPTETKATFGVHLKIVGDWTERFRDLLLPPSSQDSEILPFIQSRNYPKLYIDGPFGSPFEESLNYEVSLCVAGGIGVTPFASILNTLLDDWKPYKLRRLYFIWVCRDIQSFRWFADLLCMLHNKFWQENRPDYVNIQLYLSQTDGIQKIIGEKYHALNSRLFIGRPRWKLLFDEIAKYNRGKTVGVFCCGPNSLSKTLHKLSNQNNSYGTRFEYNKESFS
Sequence (P13498 1-195 partner): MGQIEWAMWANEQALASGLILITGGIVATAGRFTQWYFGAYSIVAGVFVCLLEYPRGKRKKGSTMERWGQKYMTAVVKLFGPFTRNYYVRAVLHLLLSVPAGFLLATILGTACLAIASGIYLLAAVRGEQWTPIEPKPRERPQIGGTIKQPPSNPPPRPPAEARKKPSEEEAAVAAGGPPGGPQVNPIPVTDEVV
Test: Cell free membrane based in vitro NOX4 assay: H2O2 production by membranes expressing human NOX4, measured with Amplex Red
Format: biochemical
Conditions: 1.0 μM compound, read-out: Percentage inhibition at 1.0 μM
Each entry falls into one class according to its inhibition at 1 µM; the ranges are A: < 80%; B: ≥ 80% and < 90%; C: ≥ 90%

Lookup: Bin? CC(=O)Oc1c(-c2c(F)cccc2F)[nH]c2c(c(C)nn2C)c1=O
Found: A

Lookup: Using the reported inhibition at 1 µM, which band applies to Cn1nc(C2CCN(S(C)(=O)=O)CC2)c2c(=O)c(O)c(-c3ccccc3Cl)[nH]c21 ?
Found: C

Lookup: Exam item: assign Cc1nn(C)c2[nH]c(-c3c(F)cccc3F)c(O)c(=O)c12 to the correct category.
Found: C

Lookup: Hi, small favor: classify CCn1nc(C)c2c(=O)c(O)c(-c3ccccc3OC)[nH]c21 by its inhibition at 1 µM when you get a moment.
Found: A

Lookup: Band for COc1ccc(-c2[nH]c3c(c(C(F)(F)F)nn3C)c(=O)c2O)c(OC)c1 ?
Found: A

Lookup: Bin? Cc1nn(C2CCC2)c2[nH]c(-c3ccccc3Cl)c(O)c(=O)c12
Found: B

Lookup: Categorize the following entry: Cn1ncc2c(=O)c(O)c(-c3ccc(F)c(C(F)(F)F)c3)[nH]c21
Found: C

Lookup: Place this compound in its band: Cc1nn(C2CCCCC2)c2[nH]c(-c3c(F)cccc3F)c(O)c(=O)c12
Found: B

Lookup: Record Cc1ccc(F)c(-c2[nH]c3c(c(C)nn3C3CC3)c(=O)c2O)c1F — which class?
Found: A

Lookup: Note: place this compound into its band. Item: Cc1nn(CCN(C)C)c2[nH]c(-c3ccccc3Cl)c(O)c(=O)c12
Found: C

Lookup: Sort Cc1n[nH]c2[nH]c(-c3c(F)cccc3F)c(O)c(=O)c12 into one of the categories.
Found: C

Lookup: Categorize the following entry: CCn1nc(C)c2c(=O)c(O)c(-c3c(F)cc(F)cc3F)[nH]c21
Found: A

Lookup: Which bin, given its inhibition at 1 µM, does Cc1nn(-c2ccc(F)cc2)c2oc(-c3ccccc3Cl)c(O)c(=O)c12 occupy?
Found: A
